biological target: T1, SARS-CoV-2 Receptor Binding Domain (RBD) protein (SARS-CoV-2, UniProt P0DTC2 319-541); experiment: SPR (Carterra LSA); scFv captured by anti-V5, RBD as analyte
T1 construct: also called Sars-Cov-2 (COV2)
readout: pKd
Just so you know, pKd here is -log10 of the concentration in molar units; reply with that number alone.

Would you please look over these solved cases?
COVID19_P01_E11 (scFv, V domains shown) VH: QVQLVQSGAEVKKPGSSVKVSCKASGGTFSNYTITWVRQAPGQGLEWLGWISAYNGNTDYAQKLQGRVTITADESTSTAYMELSSLRSEDTAVYYCARDALMGGMDVWGQGTLVTVSS VL: SSYVLTQPPSVSVAPGKTARITCGGNNIGSKSVHWYQQKPGQAPVLVIYYDSDRPSGIPERFSGSNSGNTATLTISRVEAGDEADYYCQVWDSRSDYVFGGGTKLTVLA ... 8.23
COVID19_P02_C07 (scFv, V domains shown) VH: QVQLVQSGAEVKKPGSSVKVSCKASGYTFSSYYIHWVRQAPGQGLEWMGGIIPIFGEAEYAHKFQGRVTITADESTSTAYMELSSLRSEDTAVYYCAMETVMGGMDVWGQGTLVTVSS VL: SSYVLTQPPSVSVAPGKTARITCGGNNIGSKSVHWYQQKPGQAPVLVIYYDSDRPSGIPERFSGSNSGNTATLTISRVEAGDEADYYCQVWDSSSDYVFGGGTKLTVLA ... 8.36

If you can, please state the reported pKd value of COVID19_P01_G05 (scFv, V domains shown) VH: QVQLVQSGAEVKKPGSSVKVSCKASGYTFTDFYIHWVRQAPGQGLEWMGGIIPIFGTANYAQKFQGRVTITADESTSTAYMELSSLRSEDTAVYYCALETVMGGMDVWGQGTLVTVSS VL: SSYVLTQPPSVSVAPGKTARITCGGNNIGSKSVHWYQQKPGQAPVLVIYYDSDRPSGIPERFSGSNSGNTATLTISRVEAGDEADYYCQVWDSSSHYVFGGGTKLTVLA .
8.54
